test system: UACC-257; assay: NCI tumour cell line growth inhibition, 48 h
Calls of active or inactive are those of the source. Cut-off read from the data, not from the text of the source: active = GI50 up to about 1.1 µM and inactive = higher.
Labels: active, inactive

{"compound": "CNc1c2cccc(C)c2nc2c(C(=O)NCCN(C)C)cccc12", "category-label": "active"}
{"compound": "O=C1C(Cl)=C(N2CCC[C@H]2CO)C(=O)c2c(O)ccc(O)c21", "category-label": "inactive"}
{"compound": "O=C1N(c2ccccc2)C2(c3ccccc3)CC3CCCC13S2 (centres undefined)", "category-label": "inactive"}
{"compound": "Cc1ccc2c(c1)Nc1cc(C(F)(F)F)ccc1[PH]2=O (centres undefined)", "category-label": "inactive"}
{"compound": "C=CCOC(=O)CCCCCCCCCCCCCCCOC(=O)c1c(CCC[C@@H](C)O[Si](C)(C)C(C)(C)C)nc([O-])[n+]2c1CC[C@H]2CC1(CC/C=C\\[C@H](CC)O[Si](C(C)C)(C(C)C)C(C)C)OCCO1", "category-label": "inactive"}
{"compound": "O=C(/C=C/c1ccc(Cl)cc1)c1nc2ccccc2[nH]1", "category-label": "inactive"}
{"compound": "O=C(O)CC(CC(=O)O)C(=O)O", "category-label": "inactive"}
{"compound": "Oc1ncnc2c1nnn2CCCCCCCCCCCCn1nnc2c(O)ncnc21", "category-label": "inactive"}
{"compound": "CNC(=O)N(CCC#N)CCN(CCN(C(=O)NC)c1ccccc1)C(=O)NC", "category-label": "inactive"}
